// provenance: patent US20240400677A1

- TARGET: T1, Cynomolgus Monkey SIRPγ (plate-coated extracellular domain)
- T1 construct: also called Cyno SIRPγ
- T1 extracellular domain: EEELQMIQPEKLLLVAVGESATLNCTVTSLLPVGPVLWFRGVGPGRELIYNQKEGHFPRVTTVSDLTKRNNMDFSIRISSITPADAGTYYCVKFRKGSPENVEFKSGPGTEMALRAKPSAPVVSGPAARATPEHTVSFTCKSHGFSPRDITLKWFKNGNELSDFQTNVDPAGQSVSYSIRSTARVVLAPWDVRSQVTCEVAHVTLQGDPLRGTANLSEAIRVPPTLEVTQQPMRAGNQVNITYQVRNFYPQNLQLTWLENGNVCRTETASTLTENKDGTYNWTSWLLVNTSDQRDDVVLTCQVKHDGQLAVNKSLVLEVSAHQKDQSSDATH
- EXPERIMENTAL_PROTOCOL: ELISA, coated SIRP ECD (2 µg/mL), anti-human IgG, luminescence
READOUT_TYPE: EC50 (read off the curve)

>>> result("Antibody 5 (antibody, V domains shown) VH: QVQLVQSGAEVKKPGASVKVSCKASGYTFTGYHIHWVRQAPGQGLEWMGWINPNSGGTNYAQKFQGRVTMTRDTSINTAYMELNRLRSDDTAVFYCARERVGYCSRPSCLDDLNIWGQGTMVTVSS VL: DIQMTQSPSTLSASVGDRVTITCRASQSISSWLAWYQQKPGKAPKLLIYKASSLETGVPSRFSGSGSGTEFTLTISSLQPDDFATYYCQQYDSYYTFGQGTKLEIK")
"~0.07 µg/mL"
>>> result("Antibody 70 (antibody, V domains shown) VH: QVQLVQSGAEVKKPGASVKVSCKASGYTFSNYYMHWVRQAPGQGLEWMGWMNPNSGNTGYAQKFQGRVTMTRDTSTSTVYMELSSLRSEDTAVYYCARASMYSSSGFDYWGQGTLVTVSS VL: DIVMTQSPLSLPVTPGEPASISCRSSQSLLHSNGYNYLDWYLQKPGQSPQLLIYLASTRAPGVPDRFSGSGSGTDFTLKISRVEAEDVGVYYCMQGSHWPPSFGQGTRLEIK")
"~0.05 µg/mL"
>>> result("Antibody 63 (antibody, V domains shown) VH: QVQLVQSGAEVKKPGASVKVSCKASGYTFTGYYMHWVRQAPGQGLEWMGIINPSGGSTNYAQKFQGRVTMTRDTSTSTVYMELSSLRSEDTAVYYCARGPIGYGMDVWGQGTLVTVSS VL: DIQMTQSPSSLSASVGDRVTITCRASQGIGNDLGWYQQKPGKAPKLLIYAASNLETGVPSRFSGSGSGTDFTLTISSLQPEDFATYYCLQHHSYPFTFGQGTKLEIK")
"~1 µg/mL"
